test system: ACHN renal; experiment: NCI tumour cell line growth inhibition, 48 h
value.type: TGI (µM)
Give just the numeric value; µM need not be written.

Reported TGI, molecule c1ccc2nc(Cn3c[n+](Cc4ccc5ccccc5n4)c4ccccc43)ccc2c1 : ____
31.1

// repeat for COC(=O)[C@H](Cc1ccccc1)NC(=O)NCCN(CCNC(=O)N[C@@H](Cc1ccccc1)C(=O)OC)C(=O)N[C@@H](Cc1ccccc1)C(=O)OC and report
51.6

// repeat for C[C@@]12C=CC3C/C(=N\C(N)=S)C=C(CCCC4OCCO4)[C@]3(CC1)C2 (stereo partly drawn) and report
92.2

// repeat for N#CC(C#N)=CN1CCN(C(=O)c2ccco2)C1=S and report
50.5

Source listed as PubChem BioAssay (NCI).
